Test system: 598228-144-R-J1-PDC complex spheroid viability;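 also: spheroids exposed to the agents for one week before reading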
Measurement description: Anticancer human tumor 598228-144-R-J1-PDC patient-derived serous endometrial adenocarcinoma cell line growth inhibition [GQUAD]
Assay conditions: second compound 1 µM; first compound 0.1 µM; hits give low values
Source text: DNA G-quadruplex Stabilizer Agents in Combinations in Complex Spheroids A high-throughput screen of multi-cell type tumor spheroids was designed to identify active combinations of DNA G-quadruplex stabilizer agents and targeted small molecules. […] Compounds. […] If the clinical Cmax for an agent had not been determined, the highest concentration tested was 10 microM. […]
Label MET when viability, T/C is strictly below 60%; otherwise label NOT MET.

Sample answers from the record:
CC(=O)O[C@H]1C(=O)[C@@]2(C)[C@H]([C@H](OC(=O)c3ccccc3)[C@]3(O)C[C@H](OC(=O)[C@H](O)[C@@H](NC(=O)c4ccccc4)c4ccccc4)C(C)=C1C3(C)C)[C@]1(OC(C)=O)CO[C@@H]1C[C@@H]2O + Cc1[nH]c2ccc(F)cc2c1-c1nc2c3cccnc3c3ncccc3c2[nH]1	MET
COc1cc(C2c3cc4c(cc3C(OC3OC5COC(C)OC5C(O)C3O)C3COC(=O)C23)OCO4)cc(OC)c1O (configuration not stated) + Cc1cnc(CNC(=O)c2c(=O)c3ccc(N4CCCN(C)CC4)nc3n3c2sc2ccccc23)cn1	NOT MET
Cc1cccc(N(C)C(=O)C2C(O)CCN2c2nc(C)cc(C(F)(F)F)c2C#N)c1 (configuration not stated) + Cc1[nH]c2ccc(F)cc2c1-c1nc2c3cccnc3c3ncccc3c2[nH]1	MET
CC(C)(O)C1CCC(Nc2ccc3ncc(-c4cccc(C(F)(F)F)c4)n3n2)CC1 (configuration not stated) + CN(C)c1ccc(Nc2c3ccc(NC(=O)CCN4CCCC4)cc3nc3cc(NC(=O)CCN4CCCC4)ccc23)cc1	NOT MET
C=CCn1c(=O)c2cnc(Nc3ccc(N4CCN(C)CC4)cc3)nc2n1-c1cccc(C(C)(C)O)n1 + Cc1cnc(CNC(=O)c2c(=O)c3ccc(N4CCCN(C)CC4)nc3n3c2sc2ccccc23)cn1	MET
COc1cccc2c1C(=O)c1c(O)c3c(c(O)c1C2=O)CC(O)(C(=O)CO)CC3OC1CC(N)C(O)C(C)O1 (configuration not stated) + CN(C)c1ccc(Nc2c3ccc(NC(=O)CCN4CCCC4)cc3nc3cc(NC(=O)CCN4CCCC4)ccc23)cc1	NOT MET
CC1COCCN1c1cc(-c2ccnn2C)c2ccnc(-c3ccn[nH]3)c2n1 (configuration not stated) + CN(C)c1ccc(Nc2c3ccc(NC(=O)CCN4CCCC4)cc3nc3cc(NC(=O)CCN4CCCC4)ccc23)cc1	NOT MET
O=C(c1cc(Cc2n[nH]c(=O)c3ccccc23)ccc1F)N1CCN(C(=O)C2CC2)CC1 + CN(C)c1ccc(Nc2c3ccc(NC(=O)CCN4CCCC4)cc3nc3cc(NC(=O)CCN4CCCC4)ccc23)cc1	NOT MET
C=CC(=O)N1CCN(c2nc(=O)n(-c3c(C)ccnc3C(C)C)c3nc(-c4c(O)cccc4F)c(F)cc23)C(C)C1 (configuration not stated) + Cc1cnc(CNC(=O)c2c(=O)c3ccc(N4CCCN(C)CC4)nc3n3c2sc2ccccc23)cn1	NOT MET
C=CCn1c(=O)c2cnc(Nc3ccc(N4CCN(C)CC4)cc3)nc2n1-c1cccc(C(C)(C)O)n1 + CN(C)c1ccc(Nc2c3ccc(NC(=O)CCN4CCCC4)cc3nc3cc(NC(=O)CCN4CCCC4)ccc23)cc1	NOT MET

Here's an entry: COc1cccc2c1C(=O)c1c(O)c3c(c(O)c1C2=O)CC(O)(C(=O)CO)CC3OC1CC(N)C(O)C(C)O1 (configuration not stated) + Cc1[nH]c2ccc(F)cc2c1-c1nc2c3cccnc3c3ncccc3c2[nH]1 . Is its viability, T/C below 60%?
MET

Here's an entry: CC1COCCN1c1cc(C2(S(C)(=N)=O)CC2)nc(-c2ccnc3[nH]ccc23)n1 (configuration not stated) + CN(C)c1ccc(Nc2c3ccc(NC(=O)CCN4CCCC4)cc3nc3cc(NC(=O)CCN4CCCC4)ccc23)cc1 . Is its viability, T/C below 60%?
NOT MET

Here's an entry: Nc1ccn(C2OC(CO)C(O)C2(F)F)c(=O)n1 (configuration not stated) + Cc1[nH]c2ccc(F)cc2c1-c1nc2c3cccnc3c3ncccc3c2[nH]1 . Is its viability, T/C below 60%?
MET

Here's an entry: Cc1cccc(N(C)C(=O)C2C(O)CCN2c2nc(C)cc(C(F)(F)F)c2C#N)c1 (configuration not stated) + Cc1cnc(CNC(=O)c2c(=O)c3ccc(N4CCCN(C)CC4)nc3n3c2sc2ccccc23)cn1 . Is its viability, T/C below 60%?
NOT MET

Here's an entry: CC1COCCN1c1cc(-c2ccnn2C)c2ccnc(-c3ccn[nH]3)c2n1 (configuration not stated) + Cc1[nH]c2ccc(F)cc2c1-c1nc2c3cccnc3c3ncccc3c2[nH]1 . Is its viability, T/C below 60%?
MET

Here's an entry: COc1ccc([C@@H](O)c2cc(-c3ncnc4cc(N5CCOCC5)ccc34)c(F)cc2Cl)nn1 + Cc1[nH]c2ccc(F)cc2c1-c1nc2c3cccnc3c3ncccc3c2[nH]1 . Is its viability, T/C below 60%?
NOT MET

Here's an entry: Cc1cccc(N(C)C(=O)C2C(O)CCN2c2nc(C)cc(C(F)(F)F)c2C#N)c1 (configuration not stated) + CN(C)c1ccc(Nc2c3ccc(NC(=O)CCN4CCCC4)cc3nc3cc(NC(=O)CCN4CCCC4)ccc23)cc1 . Is its viability, T/C below 60%?
NOT MET

Here's an entry: O=c1[nH]cc(F)c(=O)[nH]1 + CN(C)c1ccc(Nc2c3ccc(NC(=O)CCN4CCCC4)cc3nc3cc(NC(=O)CCN4CCCC4)ccc23)cc1 . Is its viability, T/C below 60%?
NOT MET

Here's an entry: CC1COCCN1c1cc(C2(O)CC3CCC(C2)O3)c2cnn(-c3ccn[nH]3)c2n1 (configuration not stated) + Cc1cnc(CNC(=O)c2c(=O)c3ccc(N4CCCN(C)CC4)nc3n3c2sc2ccccc23)cn1 . Is its viability, T/C below 60%?
MET

Here's an entry: C=CC(=O)N1CCN(c2nc(=O)n(-c3c(C)ccnc3C(C)C)c3nc(-c4c(O)cccc4F)c(F)cc23)C(C)C1 (configuration not stated) + Cc1[nH]c2ccc(F)cc2c1-c1nc2c3cccnc3c3ncccc3c2[nH]1 . Is its viability, T/C below 60%?
NOT MET
